Tested on: 885512-296-R-J2-PDC complex spheroid viability;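 also: spheroids exposed to agents for 7 days before viability read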
TEST METHOD NOTES: Anticancer human tumor 885512-296-R-J2-PDC patient-derived breast carcinoma cell line growth inhibition
APPLIED CONDITIONS: curve of first compound; second compound 3.16 µM
pIC50: −log10 of the molar value.

- COMPOUND: "NS(=O)(=O)OCC1CC(n2ccc3c(NC4CCc5ccccc54)ncnc32)CC1O (stereo unspecified) + NC1CCC(NC2CC2c2ccccc2)CC1"
  TEST TARGET: "885512-296-R-J2-PDC complex spheroid viability"
  RESULT QUALIFIER: ">"
  pIC50: 8.02
- COMPOUND: "Nc1ncn(C2CC(O)C(CO)O2)c(=O)n1 (stereo unspecified) + NC1CCC(NC2CC2c2ccccc2)CC1"
  TEST TARGET: "885512-296-R-J2-PDC complex spheroid viability"
  RESULT QUALIFIER: "="
  pIC50: 7.57
- COMPOUND: "O=C(C=Cc1cccc(S(=O)(=O)Nc2ccccc2)c1)NO + NC1CC1c1ccc(-c2cccc(O)c2)cc1"
  TEST TARGET: "885512-296-R-J2-PDC complex spheroid viability"
  RESULT QUALIFIER: "="
  pIC50: 7.41
- COMPOUND: "COc1cc(C2c3cc4c(cc3C(OC3OC5COC(C)OC5C(O)C3O)C3COC(=O)C23)OCO4)cc(OC)c1O (stereo unspecified) + NC1CC1c1ccc(-c2cccc(O)c2)cc1"
  TEST TARGET: "885512-296-R-J2-PDC complex spheroid viability"
  RESULT QUALIFIER: "="
  pIC50: 7.45
- COMPOUND: "CC1(C)CCC(CN2CCN(c3ccc(C(=O)NS(=O)(=O)c4ccc(NCC5CCOCC5)c([N+](=O)[O-])c4)c(Oc4cnc5[nH]ccc5c4)c3)CC2)=C(c2ccc(Cl)cc2)C1 + NC1CCC(NC2CC2c2ccccc2)CC1"
  TEST TARGET: "885512-296-R-J2-PDC complex spheroid viability"
  RESULT QUALIFIER: "="
  pIC50: 5.31
- COMPOUND: "CCN(c1cc(-c2ccc(CN3CCOCC3)cc2)cc(C(=O)NCc2c(C)cc(C)[nH]c2=O)c1C)C1CCOCC1 + NC1CCC(NC2CC2c2ccccc2)CC1"
  TEST TARGET: "885512-296-R-J2-PDC complex spheroid viability"
  RESULT QUALIFIER: "="
  pIC50: 5.68
